Test: yeast display, Sf9 membrane polyspecificity reagent, FACS + sequencing; frameworks hold sequencing errors
parameter: polyreactivity (PSR sort gate)

INSERT INTO assay_data (residue_string, result) VALUES
  ('QVQLVESGGGLVQAGGSLRLSCAASGFIFRFNAMGWYRQAPGKERELVAVIRWSSGSTYYADSVKGRFTISRDNAKNTVYLQMNSLKPEDTAVYYCAAYVVPAYYYWGQGTQVTVSS', 'low polyreactivity'),
  ('QVQLVESGGGLVQAGGSLRLSCAASGFTFARNAMGWYRQAPGKERELVAGITSRGSSTSYADSVKGRFTISRDNAKNTVYLQMNSLKPEDTAVYYCAAVPRYRDRGQYGYWGQGTQVTVSS', 'high polyreactivity'),
  ('QGQLVESGGGLVQEGGSLRLSCAASGRIFQNYAMGWYRQAPGKERELVATIDIGGSTKYADSVKGRFTISRDNAKNTVYLQMNSLKPEDTAVYYCNVPAFFYGYYRFDYWGQGTQVTVSS', 'high polyreactivity'),
  ('QVQLVESGGGIVQAGGSLRLCCAASGRSFSHYAMGWSRQAPGKDRELVATITRNGGITYYADSVKWRFTISRDNAKNTVYLQMNSLKPEDTAVYYCAAGRYYNLRATHGYWGQATQVTVSS', 'low polyreactivity'),
  ('QVQLVESGGGLVQAGGRLRISCAASGTIFYSYEMVWYRKAPAKERELVAAITQSGSSTYYADSVKGRFTISRDNAKNTVYLQMNSLKPEDTAVYYCAAVSRRHPTMSDYWGQGTQVTVSS', 'high polyreactivity'),
  ('QVQLGESGGGIVQAGGSLRLSCAASGFIIRYNAMGWYRQAPGKERQFVAAISWGGGRTYYADSVKGRFTISRDNAKNTVYLQMNSLKPEDTAVYFCAAVSPHNRYGYKYDYWGQGTQVTVSS', 'high polyreactivity'),
  ('QVQLVESGGGLVQAGGSLRLSCAASGRTFQRYAMGWYRQAPGKERELVAAITSRGGSTYYADSVKGRFTISRDNAKNTVYLQMNSLKPEDTAVYYCNARSRRTHSEPQSEMDYWGQGTQVTVSS', 'high polyreactivity'),
  ('QVQLVESGGGLVQAGGSLRLSCAASGRIFPHYAMGWYRQAPGKERELVAAISRSGVSTYYADSVKGRFTISRDNAKNTVYLQMNSLKPEDTAVYYCNIVRYSFLYSVTYNYWGQGTQVTVSS', 'high polyreactivity'),
  ('QVQLVESGGGLVQAGGSLRLSCAASGYIFKYYAMGWYRQAPGKERELVTAIRSNDDSTYYADSVKGRFTISRDTAKNTVYLQMNSLKPEDTAVYYCAAATYGTRLRRYYYWGQGTQVTVSS', 'high polyreactivity'),
  ('QVQLVESGGGLVKAGGSLRLSCAASGRIFDYNAMGWYRQAPGKERELVAAISYSGGGTYYADSVKGRFTISRDYAKNSVYFQMNSLKPEDTAVYYCAKPYYQYYYISYDYWGQGTQVTVSS', 'low polyreactivity'),
  ('QVQLVESGGGLVQAGGSLRLSCAASGRIFRPYTMGWYRQAPGKERELVAAITSGSSTNYADSVKGRFTISRDNAKNTVYLHMNSLKPEDTAVYYCAVKVRIFASYYPFYYWGQGSQVTVSS', 'high polyreactivity'),
  ('QVQLVESGGGLVQAGGSLRLSCAASGRIFIKYAMGWYRQAPGKERELVAAISQSGGSTYYADSVKGRFTISRDNAKNTVYLQMNSLKPEDTAVYYCAVRLYYSIRYYYWGQGTQVTVSS', 'high polyreactivity'),
  ('QVQLVESGGGLVQAGGSLRLSCAASGGTFGSYAMGWYRQAPGKERELVAAIRSGDRTYYADSVKGRFTISRDNAKNTVYLQMNSLKPEDTAVYYCNADGYARFRTYYSRDTREYDYWGQGTQVTVSS', 'low polyreactivity'),
  ('QVQLEESGGRLVQAGCSLRLSCAASGRTFDYYAMGWYRQAPGKEWELVAAITASGGSTFYADSVKGRFTISRDNAKNTVYLQMYSMKPEDTAVYYCAGRYTWRYFIKYGYWGQGTQVTVSS', 'high polyreactivity'),
  ('QVQLVESGGGLVQAGGSLRLSCAASVFTFGQYTMGWYRQAPGKERELVAAITGSGGNTYYADSVKGRFTISRDNAKNTVYLQMNSLKPEDTAVYYCAVQWTYDQYYDYDYWGQGTQVTVSS', 'low polyreactivity'),
  ('QVQLVVSGGGLVQAGGRLRLSCAASGSSFVGYAMGWYRQAPGKERELVAAISRRGGSTYYADSVKGRFTISRDNAKNTVYLQMNRLKPEDTSVYYFAARFKVSYYNLYSYGYWRQGTQVTVSS', 'high polyreactivity'),
  ('QVQLVESGGGLVQAGGSLRLSCAASGFIFKHNALGWYRQAPGKERELVAAISWSGDSTYYADSVKGRFTISRDNAKNTVYLQMNSLKPEDTAVYYCAAVRALRKVRDYYYWGQGTQVTVSS', 'high polyreactivity'),
  ('QDQLVESGGGLVQAGGSLRLSCAASGSTFYIYAMGWYRQAPGQERELVARISGSRGSTYYADSVKGRFTISRDNAKNTVYLQMNSLKPEDTAVYYCAADDIYNYYQYYAFPYYRYDYWGQGTQVTVSS', 'low polyreactivity'),
  ('QVQLVESGGGLVQAGGSLRLSCAASGFTFYFYALGWYRQAPGKERELVATITIGGRTNYADSVKGRFTISRDNAKNTVYLQMNSLKPEDTAVYYCAAAYLWISRYSGYDYWGQGTQVTVSS', 'high polyreactivity'),
  ('QVQLVESGGGLVQAGGSLRLSCAASGRIFRVYAMGWYRPAPGKERELVAAITSGGTTYADSVKGRFTISRDNAKNTVYLQMYSLKPEDTAVYYCAARHAYPYRRGDFNYWGQGTQVTVSS', 'high polyreactivity'),
  ('QVQLVESGGGLVQAGGSLRLSCAASGRTFGTNTMGWYRQAPGKERELVAAIRRGGGTNYADSVKGRFTISRDNAKNTVYLQMNSLKPEDTAVYYCAAVRWNTGVGYYYWGQGTQVTVSS', 'high polyreactivity');
